Tested on: Escherichia coli TOP10
Test: shrunken log2 fold change of peptide-encoding DNA abundance (4.5 h post-induction vs induction); higher = less antimicrobial activity (less host growth inhibition)
Conditions: time post-induction: 4.5 h; library: site-saturation at positions 5, 18, 19, 20
Param threshold (-0.009) applies to shrunken log2 fold change; output Yes when value >= threshold, No when value < threshold.

Here's what some known entries look like.
residue sequence	discrete label
RRIRGRPPRLPRPRPRPNAKPRP	Yes
RRIRWRPPRLPRPRPRPANPPRP	Yes
RRIRERPPRLPRPRPRPKAIPRP	No

Tell me whether shrunken log2 fold change is at least -0.009 here: RRIRLRPPRLPRPRPRPDTIPRP No

Is shrunken log2 fold change for RRIRQRPPRLPRPRPRPGLIPRP at or above -0.009? No

Check the entry RRIRPRPPRLPRPRPRPKVRPRP : does shrunken log2 fold change equal or exceed -0.009? Yes

Is reported shrunken log2 fold change greater than or equal to -0.009 here: RRIRGRPPRLPRPRPRPGINPRP Yes

For this sequence, is measured shrunken log2 fold change -0.009 or higher? RRIRQRPPRLPRPRPRPREHPRP No

Record RRIRCRPPRLPRPRPRPSHEPRP ; criterion: shrunken log2 fold change no lower than -0.009. Met? No

API: above_or_equal(metric=shrunken log2 fold change, cutoff=-0.009) for item RRIRHRPPRLPRPRPRPFAVPRP No

Could you please find out whether RRIRMRPPRLPRPRPRPREVPRP has shrunken log2 fold change that meets -0.009 or exceeds it? Yes

====

Test system: Escherichia coli TOP10
Test: shrunken log2 fold change of peptide-encoding DNA abundance (4.5 h post-induction vs induction); higher = less antimicrobial activity (less host growth inhibition)
Conditions: time post-induction: 4.5 h; library: site-saturation at positions 5, 18, 19, 20
Classes are defined on shrunken log2 fold change with ranges low = under -0.2, medium = from -0.2 up to 0.04, high = 0.04 and over

Please review the entries below; each comes with its answer.
residue sequence	discrete label
RRIRERPPRLPRPRPRPQEPPRP	medium
RRIRERPPRLPRPRPRPQTVPRP	high

// bin(item) where item = RRIRYRPPRLPRPRPRPNEKPRP medium

Classify this sequence: RRIRCRPPRLPRPRPRPVYDPRP low

====

Field: shrunken log2 fold change. Provide a value for each of the sequences that follow.
Test system: Escherichia coli TOP10
Assay: shrunken log2 fold change of peptide-encoding DNA abundance (4.5 h post-induction vs induction); higher = less antimicrobial activity (less host growth inhibition)
Conditions: time post-induction: 4.5 h; library: site-saturation at positions 5, 18, 19, 20
Answers are plain numbers.

residue sequence	measured metric	result number
RRIRWRPPRLPRPRPRPFSAPRP	shrunken log2 fold change	-0.133

# map each sequence to its shrunken log2 fold change
1. RRIRQRPPRLPRPRPRPCGHPRP
2. RRIRNRPPRLPRPRPRPMRVPRP
3. RRIRLRPPRLPRPRPRPNDKPRP
4. RRIRNRPPRLPRPRPRPSTFPRP
5. RRIRERPPRLPRPRPRPMCRPRP
6. RRIRIRPPRLPRPRPRPPRNPRP

0.0101
0.161
-0.962
-0.276
0.03
0.217

Record summary for RRIRHRPPRLPRPRPRPQRCPRP : reported shrunken log2 fold change = -0.00202

====

System: Escherichia coli TOP10
Experiment: shrunken log2 fold change of peptide-encoding DNA abundance (4.5 h post-induction vs induction); higher = less antimicrobial activity (less host growth inhibition)
Conditions: time post-induction: 4.5 h; library: site-saturation at positions 5, 18, 19, 20
Each entry falls into one class according to its shrunken log2 fold change; the ranges are lower range (below -0.1), middle range (-0.1 to below 0.08), upper range (0.08 or more)

residue sequence	discrete label
RRIRSRPPRLPRPRPRPNTNPRP	middle range
RRIRQRPPRLPRPRPRPVQKPRP	upper range
RRIRPRPPRLPRPRPRPSSQPRP	lower range
RRIRHRPPRLPRPRPRPNAQPRP	middle range
RRIRERPPRLPRPRPRPNSSPRP	lower range

Class? Entry: RRIRQRPPRLPRPRPRPGEYPRP middle range

Which category does the recorded shrunken log2 fold change put RRIRYRPPRLPRPRPRPFDWPRP in? lower range

For RRIRRRPPRLPRPRPRPFQTPRP , which shrunken log2 fold change bin applies? middle range

Pick a category. Item: RRIRRRPPRLPRPRPRPAKDPRP upper range

Class for RRIRWRPPRLPRPRPRPVKHPRP ? upper range

Sort RRIRYRPPRLPRPRPRPMDEPRP into one of the categories. lower range

Band for the recorded shrunken log2 fold change of RRIRMRPPRLPRPRPRPSERPRP ? upper range

====

Tested on: Escherichia coli TOP10
Assay: shrunken log2 fold change of peptide-encoding DNA abundance (4.5 h post-induction vs induction); higher = less antimicrobial activity (less host growth inhibition)
Settings: time post-induction: 4.5 h; library: site-saturation at positions 5, 18, 19, 20
Decision: shrunken log2 fold change compared against 0.002; not below it gives label 1, below it gives label 0.

residue sequence	discrete label
RRIRGRPPRLPRPRPRPIKIPRP	label 1
RRIRGRPPRLPRPRPRPHLLPRP	label 1
RRIRMRPPRLPRPRPRPFFSPRP	label 1
RRIRRRPPRLPRPRPRPRKGPRP	label 1
RRIRLRPPRLPRPRPRPQDGPRP	label 0

Hello, I need to know if RRIRHRPPRLPRPRPRPMFVPRP has measured shrunken log2 fold change not below 0.002. Thanks! label 1

Kindly determine if shrunken log2 fold change recorded for RRIRLRPPRLPRPRPRPIMQPRP is above or exactly 0.002. label 0

Is the recorded value of shrunken log2 fold change equal to or greater than 0.002 for this sequence? RRIRSRPPRLPRPRPRPMWSPRP label 1

API: above_or_equal(metric=shrunken log2 fold change, cutoff=0.002) for item RRIRTRPPRLPRPRPRPGHDPRP label 0

Identify whether the reported shrunken log2 fold change of the following sequence is 0.002 or greater: RRIRGRPPRLPRPRPRPLTVPRP label 1

Hello, I need to know if RRIRRRPPRLPRPRPRPEDTPRP has measured shrunken log2 fold change not below 0.002. Thanks! label 1

Evaluate RRIRRRPPRLPRPRPRPMTCPRP : shrunken log2 fold change at minimum 0.002? label 1

Threshold query (shrunken log2 fold change >= 0.002) on RRIRSRPPRLPRPRPRPDRMPRP label 0

Form field: shrunken log2 fold change at least 0.002? Entry: RRIRWRPPRLPRPRPRPAFVPRP label 1

shrunken log2 fold change >= 0.002 for RRIRQRPPRLPRPRPRPHRQPRP ? label 1

Hi, just wondering whether RRIRIRPPRLPRPRPRPQGLPRP shows shrunken log2 fold change of 0.002 or higher. label 1

Reported shrunken log2 fold change reaches at least 0.002 for RRIRSRPPRLPRPRPRPCGMPRP ? label 0

Is shrunken log2 fold change at least 0.002? Consider RRIRPRPPRLPRPRPRPMFQPRP label 0

Check the entry RRIRVRPPRLPRPRPRPCMHPRP : does shrunken log2 fold change equal or exceed 0.002? label 1

====

Test system: Escherichia coli TOP10
Experiment: shrunken log2 fold change of peptide-encoding DNA abundance (4.5 h post-induction vs induction); higher = less antimicrobial activity (less host growth inhibition)
Settings: time post-induction: 4.5 h; library: site-saturation at positions 5, 18, 19, 20
Provide the recorded shrunken log2 fold change for the entries that follow.
One number for each entry.

residue sequence	target entity	shrunken log2 fold change
RRIRERPPRLPRPRPRPMTWPRP	Escherichia coli TOP10	0.0575

Provide shrunken log2 fold change values for the following items, in order.
1. RRIRNRPPRLPRPRPRPHPVPRP
2. RRIRTRPPRLPRPRPRPEIFPRP
3. RRIRERPPRLPRPRPRPVMKPRP
4. RRIRWRPPRLPRPRPRPTESPRP
5. RRIRIRPPRLPRPRPRPVGAPRP

1. -0.269
2. -0.303
3. -0.236
4. 0.189
5. 0.475

====

System: Escherichia coli TOP10;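 further: peptides expressed intracellularly from a pBAD plasmid library in pooled LB shake-flask culture, induced with 0.3% L-arabinose, DNA abundance read by NGS, three biological replicates, DESeq2 with apeglm shrinkage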
Assay: shrunken log2 fold change of peptide-encoding DNA abundance (4.5 h post-induction vs induction); higher = less antimicrobial activity (less host growth inhibition)
Details: time post-induction: 4.5 h; library: site-saturation at positions 5, 18, 19, 20
measured metric: shrunken log2 fold change
Give bare numbers.

residue sequence	result number
RRIRQRPPRLPRPRPRPDHPPRP	-0.0816
RRIRTRPPRLPRPRPRPTDKPRP	-0.55
RRIRWRPPRLPRPRPRPLCMPRP	-0.177
RRIRMRPPRLPRPRPRPCTLPRP	-0.192
RRIRLRPPRLPRPRPRPKYIPRP	-0.603
RRIRSRPPRLPRPRPRPTWFPRP	-0.216
RRIRIRPPRLPRPRPRPWRPPRP	0.145
RRIRERPPRLPRPRPRPYYTPRP	-0.116

Please give shrunken log2 fold change for each item listed below.
1. RRIRMRPPRLPRPRPRPRGVPRP
2. RRIRPRPPRLPRPRPRPIRFPRP
3. RRIRDRPPRLPRPRPRPLWVPRP
4. RRIRMRPPRLPRPRPRPVYSPRP
5. RRIRPRPPRLPRPRPRPLCWPRP
6. RRIRDRPPRLPRPRPRPHAGPRP

[1.23, -0.119, -0.0158, -0.248, 0.266, 0.0575]

Hey, can you go through the list below and give me shrunken log2 fold change for every item?
1. RRIRRRPPRLPRPRPRPNLLPRP
2. RRIRWRPPRLPRPRPRPAMIPRP
3. RRIRGRPPRLPRPRPRPNEWPRP
4. RRIRYRPPRLPRPRPRPRWDPRP
5. RRIRVRPPRLPRPRPRPWTDPRP
6. RRIRSRPPRLPRPRPRPAECPRP

-0.00833
-0.0987
1.8
-0.0245
-0.0083
0.0306
